test system: alpha-thrombin (Homo sapiens, UniProt P00734;P00734 P00734:315-363,P00734:364-622)
method summary: SPR; apparent; solution competition vs immobilized consensus aptamer; same buffer, 25 C
measured attribute: pKd
As a rule, pKd stands for the negative log10 of the concentration, concentration in M.

binder: GGTTGGTGTGGTTGG (structured_DNA) [Compound 10 (consensus thrombin aptamer)]
measurement: 8.22

Continue with the next binder.
Dear colleague, I am looking for the recorded pKd of the following binder: GGTTGGTT (ssDNA) [Compound 12 (single segment)]
5.82

These entries and their values trace back to patent US5668265.
